biological target: anti-A021 antibody (PSA PET); test: peptide competition assay in 6% BSA
pIC50: −log10 of the molar value. Where no end group is shown, it is not given here.

binder	pIC50
Ac-LSEPAELTDAVKC [A021 peptide (PSA), Ac-…]	8.10
